molecular target: α4β1 integrin (Jurkat cell adhesion to immobilized CS-1 derived peptide CLHPGEILDVPST) (Homo sapiens, UniProt P05556+P13612); construct: 100 μl of Jurkat cells (2.5×10^6 cells/ml) in DMEM plus BSA; endogenous in cells; experiment: Jurkat-CS-1 Assay; settings: Jurkat cells on CS-1 peptide coated plates
pIC50: −log10 of the molar value.
measure: pIC50

>  <compound>
CC1(C)[C@@H](C(=O)N[C@@H](Cc2ccc(NC(=O)c3ccc(Cl)c(Cl)c3)cc2)C(=O)O)CC[C@@]1(C)C(=O)O

>  <pIC50>
6.30 to 7.10

$$$$
>  <compound>
CC1(C)[C@@H](C(=O)N[C@@H](Cc2ccc(NC(=O)c3cccc(C(=O)c4ccccc4)c3)cc2)C(=O)O)CC[C@@]1(C)C(=O)O

>  <pIC50>
6.30 to 7.10

$$$$
>  <compound>
CC1(C)[C@@H](C(=O)N[C@@H](Cc2ccc(NC(=O)c3ccccc3)cc2)C(=O)O)CC[C@@]1(C)C(=O)O

>  <pIC50>
6.30 to 7.10

$$$$
>  <compound>
CC1(C)[C@@H](C(=O)N[C@@H](Cc2ccc(NCc3c(Cl)cccc3Cl)cc2)C(=O)O)CC[C@@]1(C)C(=O)O

>  <pIC50>
≥ 7.10

$$$$
>  <compound>
CC1(C)[C@@H](C(=O)N[C@@H](Cc2ccc(C(=O)Nc3c(Cl)cccc3Cl)cc2)C(=O)O)CC[C@@]1(C)C(=O)O

>  <pIC50>
6.30 to 7.10

$$$$
>  <compound>
COC(=O)[C@H](Cc1ccc(NC(=O)c2c(Cl)cccc2Cl)cc1)NC(=O)[C@H]1CC[C@@](C)(C(=O)O)C1(C)C

>  <pIC50>
6.00 to 6.30

$$$$
>  <compound>
CC1(C)[C@@H](C(=O)N[C@@H](Cc2ccc(NC(=O)c3ccccn3)cc2)C(=O)O)CC[C@@]1(C)C(=O)O

>  <pIC50>
6.30 to 7.10

$$$$
>  <compound>
CC1(C)[C@@H](C(=O)N[C@@H](Cc2ccc(C(=O)Nc3ccc(Cl)cc3)cc2)C(=O)O)CC[C@@]1(C)C(=O)O

>  <pIC50>
6.00 to 6.30

$$$$

Below are 7 compounds. Give each one its pIC50.
1. CC1(C)[C@@H](C(=O)N[C@@H](Cc2cn(Cc3ccc(Cl)c(Cl)c3)cn2)C(=O)O)CC[C@@]1(C)C(=O)O
2. COC(=O)[C@H](Cc1ccc(NC(=O)c2ccccc2C)cc1)NC(=O)[C@H]1CC[C@@](C)(C(=O)O)C1(C)C
3. CC1(C)[C@@H](C(=O)N[C@@H](Cc2ccc(NC(=O)c3c(Cl)cccc3Cl)cc2)C(=O)O)CC[C@@]1(C)C(=O)NCC(N)=O
4. CC1(C)[C@@H](C(=O)N[C@@H](Cc2ccc(OCc3ccccc3)cc2)C(=O)O)CC[C@@]1(C)C(=O)O
5. Cc1ccccc1C(=O)Nc1ccc(C[C@H](NC(=O)[C@H]2CC[C@@](C)(C(=O)O)C2(C)C)C(=O)O)cc1
6. CC1(C)[C@@H](C(=O)N[C@@H](Cc2ccc(NC(=O)c3c(F)cccc3F)cc2)C(=O)O)CC[C@@]1(C)C(=O)O
7. CC1(C)[C@@H](C(=O)N[C@@H](Cc2cn(Cc3ccc4ccccc4c3)cn2)C(=O)O)CC[C@@]1(C)C(=O)O

result:
1: 6.30 to 7.10; 2: 6.30 to 7.10; 3: ≥ 7.10; 4: 6.00 to 6.30; 5: 6.30 to 7.10; 6: ≥ 7.10; 7: 6.30 to 7.10

Below are 8 compounds. Give each one its pIC50.
1. CC1(C)[C@@H](C(=O)N[C@@H](Cc2ccc(NC(=O)c3ccco3)cc2)C(=O)O)CC[C@@]1(C)C(=O)O
2. CC1(C)[C@@H](C(=O)N[C@@H](Cc2ccc(C(=O)Nc3ccccc3C(F)(F)F)cc2)C(=O)O)CC[C@@]1(C)C(=O)O
3. Cc1ccc(S(=O)(=O)Nc2ccc(C[C@H](NC(=O)[C@H]3CC[C@@](C)(C(=O)O)C3(C)C)C(=O)O)cc2)cc1
4. Cc1cccc(C)c1C(=O)Nc1ccc(C[C@H](NC(=O)[C@H]2CC[C@@](C)(C(=O)O)C2(C)C)C(=O)O)cc1
5. CC1(C)[C@@H](C(=O)N[C@@H](Cc2cn(Cc3ccccc3C(F)(F)F)cn2)C(=O)O)CC[C@@]1(C)C(=O)O
6. CC1(C)[C@@H](C(=O)N[C@@H](Cc2ccc(OCc3c(Cl)cccc3Cl)cc2)C(=O)O)CC[C@@]1(C)C(=O)NCC(N)=O
7. C[C@H](NC(=O)[C@]1(C)CC[C@H](C(=O)N[C@@H](Cc2ccc(NC(=O)c3c(Cl)cccc3Cl)cc2)C(=O)O)C1(C)C)C(=O)O (relative stereo)
8. CC1(C)[C@@H](C(=O)O)CC[C@@]1(C)C(=O)N[C@@H](Cc1ccc(OCc2c(Cl)cccc2Cl)cc1)C(=O)O

result:
1. 6.30 to 7.10
2. 6.30 to 7.10
3. 6.00 to 6.30
4. 6.30 to 7.10
5. 6.00 to 6.30
6. 6.30 to 7.10
7. ≥ 7.10
8. 6.30 to 7.10

Below are 2 compounds. Give each one its pIC50.
1. CC1(C)[C@@H](C(=O)N[C@H](Cc2ccc(OCc3c(Cl)cccc3Cl)cn2)C(=O)O)CC[C@@]1(C)C(=O)O (relative stereo)
2. CC1(C)[C@@H](C(=O)N[C@@H](Cc2ccc(NC(=O)c3cc(C(F)(F)F)ccc3C(F)(F)F)cc2)C(=O)O)CC[C@@]1(C)C(=O)O

result:
1: 6.30 to 7.10; 2: ≥ 7.10

###

What pIC50 was measured for each of the following?
molecular target: α4β1 integrin (Jurkat cell adhesion to immobilized CS-1 derived peptide CLHPGEILDVPST) (Homo sapiens, UniProt P05556+P13612); construct: 100 μl of Jurkat cells (2.5×10^6 cells/ml) in DMEM plus BSA; endogenous in cells; host or cells: Jurkat T-cell line; experiment: Jurkat-CS-1 Assay; format: cell-based; conditions: Jurkat cells on CS-1 peptide coated plates
pIC50: −log10 of the molar value. Counter-ions that a name gives are not always drawn.

Below are worked cases with known answers.
>  <compound>
CC1(C)[C@@H](C(=O)N[C@@H](Cc2ccc(NC(=O)c3c(Cl)cccc3Cl)cc2)C(=O)O)CC[C@@]1(C)C(=O)N1CCC[C@H]1C(N)=O (relative stereo) [Example 213, monosodium salt]

>  <pIC50>
6.30 to 7.10

$$$$
>  <compound>
CC1(C)[C@@H](C(=O)N[C@@H](Cc2ccc(NC(=O)c3ccc(-c4ccccc4)cc3)cc2)C(=O)O)CC[C@@]1(C)C(=O)O [Example 116]

>  <pIC50>
≥ 7.10

$$$$

Below are 4 compounds. Give each one its pIC50.
1. CC1(C)[C@@H](C(=O)N[C@@H](Cc2cn(Cc3ccc(Cl)cc3Cl)cn2)C(=O)O)CC[C@@]1(C)C(=O)O [Example 24]
2. CC1(C)[C@@H](C(=O)N[C@@H](Cc2ccc(NC(=O)c3ccccc3Br)cc2)C(=O)O)CC[C@@]1(C)C(=O)O [Example 112]
3. Cc1cccc(Cl)c1C(=O)Nc1ccc(C[C@H](NC(=O)[C@H]2CC[C@@](C)(C(=O)O)C2(C)C)C(=O)O)cc1 [Example 106]
4. CC1(C)[C@@H](C(=O)O)CC[C@@]1(C)NC(=O)N[C@]1(C)CC[C@H](C(=O)N[C@@H](Cc2ccc(NC(=O)c3c(Cl)cccc3Cl)cc2)C(=O)O)C1(C)C (relative stereo) [Example 236]

result:
["6.30 to 7.10", "≥ 7.10", "≥ 7.10", "6.30 to 7.10"]

###

molecular target: α4β1 integrin (Jurkat T-cell adhesion to IL-1 stimulated endothelial cell monolayers) (Homo sapiens, UniProt P05556+P13612); construct: a T-cell line, Jurkat, known to express the α4β1 integrin; experiment: Jurkat-Endothelial Cell Adhesion Assay (Jurkat EC); conditions: Jurkat cells on IL-1 stimulated HUVEC monolayers
Sequence (P13612 34-1032): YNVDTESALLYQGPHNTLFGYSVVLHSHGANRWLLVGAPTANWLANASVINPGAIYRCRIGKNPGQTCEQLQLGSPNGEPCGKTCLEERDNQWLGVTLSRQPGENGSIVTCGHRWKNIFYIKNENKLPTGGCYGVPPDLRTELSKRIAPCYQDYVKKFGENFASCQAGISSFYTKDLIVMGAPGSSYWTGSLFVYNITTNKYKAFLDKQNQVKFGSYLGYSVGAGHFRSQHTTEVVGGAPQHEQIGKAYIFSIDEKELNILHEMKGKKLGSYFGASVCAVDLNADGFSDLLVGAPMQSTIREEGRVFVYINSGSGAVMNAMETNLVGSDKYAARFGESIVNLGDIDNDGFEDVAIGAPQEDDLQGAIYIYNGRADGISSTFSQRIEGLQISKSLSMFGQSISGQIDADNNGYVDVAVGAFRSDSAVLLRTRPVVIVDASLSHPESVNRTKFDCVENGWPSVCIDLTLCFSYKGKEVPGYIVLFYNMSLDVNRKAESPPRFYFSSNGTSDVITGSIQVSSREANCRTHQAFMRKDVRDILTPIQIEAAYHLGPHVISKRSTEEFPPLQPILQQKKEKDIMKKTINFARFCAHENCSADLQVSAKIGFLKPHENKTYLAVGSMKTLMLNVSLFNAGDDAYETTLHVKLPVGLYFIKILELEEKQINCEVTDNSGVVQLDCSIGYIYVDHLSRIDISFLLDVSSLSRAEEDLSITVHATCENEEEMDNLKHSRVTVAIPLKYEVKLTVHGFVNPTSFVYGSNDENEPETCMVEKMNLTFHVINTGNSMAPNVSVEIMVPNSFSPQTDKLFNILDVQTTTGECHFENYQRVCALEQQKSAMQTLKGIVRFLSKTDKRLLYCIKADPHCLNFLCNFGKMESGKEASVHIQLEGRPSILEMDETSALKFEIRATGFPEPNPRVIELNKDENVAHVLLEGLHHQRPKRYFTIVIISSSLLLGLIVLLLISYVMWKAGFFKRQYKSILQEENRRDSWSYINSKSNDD
Sequence (P05556 21-798): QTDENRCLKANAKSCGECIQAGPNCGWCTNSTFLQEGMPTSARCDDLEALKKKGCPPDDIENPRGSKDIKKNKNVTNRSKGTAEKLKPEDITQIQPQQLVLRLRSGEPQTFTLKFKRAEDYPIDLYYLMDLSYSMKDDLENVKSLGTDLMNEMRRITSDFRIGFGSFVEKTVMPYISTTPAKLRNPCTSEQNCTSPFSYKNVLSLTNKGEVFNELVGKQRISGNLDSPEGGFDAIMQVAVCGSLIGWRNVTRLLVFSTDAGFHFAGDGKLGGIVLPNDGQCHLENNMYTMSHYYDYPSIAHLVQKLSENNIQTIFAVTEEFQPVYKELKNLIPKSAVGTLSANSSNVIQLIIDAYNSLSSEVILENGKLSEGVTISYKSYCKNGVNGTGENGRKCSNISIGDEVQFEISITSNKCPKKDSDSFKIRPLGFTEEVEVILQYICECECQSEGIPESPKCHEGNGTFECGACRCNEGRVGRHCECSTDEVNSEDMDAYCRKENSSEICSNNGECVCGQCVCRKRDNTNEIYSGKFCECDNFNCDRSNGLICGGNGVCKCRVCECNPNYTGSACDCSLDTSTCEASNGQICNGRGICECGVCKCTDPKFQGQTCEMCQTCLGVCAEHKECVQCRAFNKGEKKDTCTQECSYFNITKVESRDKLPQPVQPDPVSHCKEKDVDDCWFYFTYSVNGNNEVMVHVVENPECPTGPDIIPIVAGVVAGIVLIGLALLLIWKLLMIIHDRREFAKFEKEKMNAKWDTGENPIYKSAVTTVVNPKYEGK
What IC50 was measured for each of the following?

Below are worked cases with known answers.
>  <molecule>
CC(C)CC(=O)Nc1ccc(C[C@H](NC(=O)[C@H]2CC[C@@](C)(C(=O)O)C2(C)C)C(=O)O)cc1 [Example 134]

>  <IC50>
800 to 5000 nM

$$$$
>  <molecule>
C[C@H](NC(=O)[C@]1(C)CC[C@H](C(=O)N[C@@H](Cc2ccc(NC(=O)c3c(Cl)cccc3Cl)cc2)C(=O)O)C1(C)C)C(=O)O (relative stereo) [Example 211]

>  <IC50>
≤ 800 nM

$$$$
>  <molecule>
CC1(C)[C@@H](C(=O)N[C@@H](Cc2ccc(NC(=O)c3cccnc3Cl)cc2)C(=O)O)CC[C@@]1(C)C(=O)O [Example 208]

>  <IC50>
≤ 800 nM

$$$$
>  <molecule>
CC1(C)[C@@H](C(=O)N[C@@H](Cc2ccc(NC(=O)c3ccccc3[N+](=O)[O-])cc2)C(=O)O)CC[C@@]1(C)C(=O)O [Example 102]

>  <IC50>
≤ 800 nM

$$$$
>  <molecule>
COc1nc(Cl)ccc1C(=O)Nc1ccc(C[C@H](NC(=O)[C@H]2CC[C@@](C)(C(=O)O)C2(C)C)C(=O)O)cc1 [Example 210]

>  <IC50>
≤ 800 nM

$$$$

API: the following record is the query input.
query: For CC(C)(C)c1ccc(C(=O)Nc2ccc(C[C@H](NC(=O)[C@H]3CC[C@@](C)(C(=O)O)C3(C)C)C(=O)O)cc2)c(Cl)c1 [Example 253] , what is its reported IC50?
result: 800 to 5000 nM

Data origin: patent US6482849B1
